Listed here are compounds together with their documented Activity.
# Test system: HepG2
# methodSummary: Mitochondrial toxicity in human HepG2 cells assessed as lactic acid production at 50 uM followed by medium plus drugs replenishment every 3 to 4 days for 14 days relative to control
# Assay type: cell-based
# conditionParameters: hepg2, 336 h
In your response, the unit should come after the numeric value.

Previously resolved entries follow.
>  <compound>
CC(C)OC(=O)[C@H](C)N[P@](=O)(OC[C@H]1O[C@@H](n2ccc(=O)[nH]c2=O)[C@@](F)(Br)[C@@H]1O)Oc1ccccc1 (single isomer, unassigned)

>  <studySystem>
HepG2

>  <assayValue>
220%

$$$$
>  <compound>
CC(C)OC(=O)[C@H](C)NP(=O)(OC[C@H]1O[C@@H](n2ccc(=O)[nH]c2=O)[C@](F)(Br)[C@H]1O)Oc1ccccc1 (mixture of isomers)

>  <studySystem>
HepG2

>  <assayValue>
140%

$$$$
>  <compound>
CC(C)OC(=O)[C@H](C)N[P@](=O)(OC[C@H]1O[C@@H](n2ccc(=O)[nH]c2=O)[C@](C)(F)[C@@H]1O)Oc1ccccc1

>  <studySystem>
HepG2

>  <assayValue>
180%

$$$$

# next compound below
Note to self: Activity recorded for CC(C)OC(=O)[C@H](C)N[P@@](=O)(OC[C@H]1O[C@@H](n2ccc(=O)[nH]c2=O)C(F)(Br)C1O)Oc1ccccc1 (single isomer, unassigned) was 100%

###

# studySystem: UniProt:O39930
# Sequence (O39930 1-591): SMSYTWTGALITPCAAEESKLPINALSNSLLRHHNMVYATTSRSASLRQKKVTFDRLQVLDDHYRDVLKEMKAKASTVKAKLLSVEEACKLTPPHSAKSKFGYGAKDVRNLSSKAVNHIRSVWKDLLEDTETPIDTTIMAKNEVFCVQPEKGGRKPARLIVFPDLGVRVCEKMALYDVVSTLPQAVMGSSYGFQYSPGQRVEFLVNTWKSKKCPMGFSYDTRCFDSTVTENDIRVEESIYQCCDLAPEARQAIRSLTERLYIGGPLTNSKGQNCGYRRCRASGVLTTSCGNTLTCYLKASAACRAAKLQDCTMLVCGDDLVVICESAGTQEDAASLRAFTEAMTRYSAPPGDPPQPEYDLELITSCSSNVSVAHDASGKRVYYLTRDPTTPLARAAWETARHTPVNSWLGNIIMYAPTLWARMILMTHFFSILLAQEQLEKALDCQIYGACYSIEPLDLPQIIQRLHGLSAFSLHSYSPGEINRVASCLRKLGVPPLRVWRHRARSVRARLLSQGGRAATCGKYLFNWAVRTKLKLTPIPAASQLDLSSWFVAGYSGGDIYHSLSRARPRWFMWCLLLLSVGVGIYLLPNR
# conditionParameters: Hepatitis C virus subtype 1b
# Description: Inhibition of NS5B polymerase in wild type HCV genotype 1b infected in human Huh7 replicon cells after 5 days by RT-PCR assay
property: EC90

Previously resolved entries follow.
>  <molecule>
CC(C)OC(=O)[C@H](C)N[P@@](=O)(OC[C@H]1O[C@@H](n2ccc(=O)[nH]c2=O)C(F)(Br)C1O)Oc1ccccc1 (single isomer, unassigned)

>  <studySystem>
UniProt:O39930

>  <assayValue>
0.53 to 2.4 µM

$$$$
>  <molecule>
CC(C)OC(=O)[C@H](C)N[P@](=O)(OC[C@H]1O[C@@H](n2ccc(=O)[nH]c2=O)[C@](C)(F)[C@@H]1O)Oc1ccccc1

>  <studySystem>
UniProt:O39930

>  <assayValue>
0.15 to 0.9 µM

$$$$

# next molecule below
Note to self: EC90 recorded for CC(C)OC(=O)[C@H](C)N[P@](=O)(OC[C@H]1O[C@@H](n2ccc(=O)[nH]c2=O)[C@@](F)(Br)[C@@H]1O)Oc1ccccc1 (single isomer, unassigned) was 0.074 to 0.28 µM

###

# studySystem: RNA-directed RNA polymerase (Hepacivirus hominis)
# conditionParameters: Hepatitis C virus subtype 1b
property: EC90 (µM)
Number only, in µM; omit the unit.

Note to self: EC90 recorded for Nc1ccn([C@@H]2O[C@H](CO)[C@@H](O)[C@]2(F)Br)c(=O)n1 was 9.5

Note to self: EC90 recorded for CC(C)OC(=O)[C@H](C)NP(=O)(OC[C@H]1O[C@@H](n2cnc3c(=O)[nH]c(N)nc32)[C@](F)(Br)[C@H]1O)Oc1ccccc1 (some centres not stated) was 1.8

Note to self: EC90 recorded for CC(C)OC(=O)[C@H](C)NP(=O)(OC[C@H]1O[C@@H](n2ccc(N)nc2=O)C(F)(Br)C1O)Oc1ccccc1 (single isomer, unassigned) was 1.8

Note to self: EC90 recorded for C[C@@]1(O)[C@H](O)[C@@H](CO)O[C@H]1n1ccc(N)nc1=O was 9.9

Note to self: EC90 recorded for CC(C)OC(=O)[C@H](C)NP(=O)(OC[C@H]1O[C@@H](n2ccc(=O)[nH]c2=O)[C@](F)(Br)[C@H]1O)Oc1ccccc1 (mixture of isomers) was 0.9

###

# methodSummary: Cardiotoxicity against human embryonic stem cell-induced ventricular cardiomyocytes administered on day 7 and measured on day 10 after 30 mins incubation by CellTiter Glo assay
# Format: toxicity, cell-based, Cardiac muscle cell
property: CC50 at 0.5 h

Note to self: CC50 at 0.5 h recorded for CC(C)OC(=O)[C@H](C)N[P@](=O)(OC[C@H]1O[C@@H](n2ccc(=O)[nH]c2=O)[C@](C)(F)[C@@H]1O)Oc1ccccc1 was > 100 µM

###

# methodSummary: Nephrotoxicity in human HK2 cells after 72 hrs by Hoechst 33342/HCS live/dead green dye-based assay
# Assay type: toxicity, cell-based, HK-2
property: CC50 at 72 h

Note to self: CC50 at 72 h recorded for CC(C)OC(=O)[C@H](C)N[P@](=O)(OC[C@H]1O[C@@H](n2ccc(=O)[nH]c2=O)[C@](C)(F)[C@@H]1O)Oc1ccccc1 was > 300 µM

###

# methodSummary: Cytotoxicity in human HepaRG cells assessed as reduction in cell viability incubated for 14 days by CellTiter-Glo assay
# Type: cell-based
property: CC50 at 336 h (µM)
Number only, in µM; omit the unit.

Note to self: CC50 at 336 h recorded for CC(C)OC(=O)[C@H](C)N[P@](=O)(OC[C@H]1O[C@@H](n2ccc(=O)[nH]c2=O)[C@](C)(F)[C@@H]1O)Oc1ccccc1 was 44

###

Listed here are compounds together with their documented remaining at 2 h, 2 µM.
# methodSummary: Stability in human plasma assessed as compound remaining at 2 uM after 120 mins by LC/MS/MS analysis
# Format: ADME, cell-free
# conditionParameters: read-out: Stability
In your response, the unit should come after the numeric value.

>  <compound>
CC(C)OC(=O)[C@H](C)N[P@@](=O)(OC[C@H]1O[C@@H](n2ccc(=O)[nH]c2=O)C(F)(Br)C1O)Oc1ccccc1 (single isomer, unassigned)

>  <remaining at 2 h, 2 µM>
72%

$$$$

# next compound below
Note to self: remaining at 2 h, 2 µM recorded for CC(C)OC(=O)[C@H](C)N[P@](=O)(OC[C@H]1O[C@@H](n2ccc(=O)[nH]c2=O)[C@@](F)(Br)[C@@H]1O)Oc1ccccc1 (single isomer, unassigned) was 90%

###

# System: nuclear ribosomal-DNA level
# methodSummary: Mitochondrial toxicity in human HepG2 cells assessed as inhibition of nuclear ribosomal-DNA level at 25 uM followed by medium plus drugs replenishment every 3 to 4 days for 14 days relative to control
# Type: cell-based
property: inhibition at 336 h, 25 µM

Note to self: inhibition at 336 h, 25 µM recorded for CC(C)OC(=O)[C@H](C)N[P@](=O)(OC[C@H]1O[C@@H](n2ccc(=O)[nH]c2=O)[C@@](F)(Br)[C@@H]1O)Oc1ccccc1 (single isomer, unassigned) was 39%

###

# System: nuclear ribosomal-DNA level
# methodSummary: in vitro
# conditionParameters: human, HepG2 cells
property: IC50 at 14 days (µM)
Number only, in µM; omit the unit.

>  <compound>
CC(C)OC(=O)[C@H](C)N[P@](=O)(OC[C@H]1O[C@@H](n2ccc(=O)[nH]c2=O)[C@](C)(F)[C@@H]1O)Oc1ccccc1

>  <IC50 at 14 days, µM>
45

$$$$

# next compound below
nuclear ribosomal-DNA level assay, compound CC(C)OC(=O)[C@H](C)N[P@](=O)(OC[C@H]1O[C@@H](n2ccc(=O)[nH]c2=O)[C@@](F)(Br)[C@@H]1O)Oc1ccccc1 (single isomer, unassigned) , recorded IC50 at 14 days = 32

###

# methodSummary: in vitro
# conditionParameters: human, liver microsomes
# Description: Stability in human liver microsomes assessed as compound remaining in absence of NADPH regenerating system after 60 mins by LC/MS/MS analysis
property: remaining at 1 h

>  <compound>
CC(C)OC(=O)[C@H](C)N[P@](=O)(OC[C@H]1O[C@@H](n2ccc(=O)[nH]c2=O)[C@@](F)(Br)[C@@H]1O)Oc1ccccc1 (single isomer, unassigned)

>  <property>
remaining at 1 h

>  <assayValue>
3.7%

$$$$

# next compound below
Note to self: remaining at 1 h recorded for CC(C)OC(=O)[C@H](C)N[P@@](=O)(OC[C@H]1O[C@@H](n2ccc(=O)[nH]c2=O)C(F)(Br)C1O)Oc1ccccc1 (single isomer, unassigned) was 26.6%

###

Listed here are compounds together with their documented IC50 at 14 days.
# Test system: nuclear ribosomal-DNA level
# methodSummary: in vitro
# conditionParameters: human, HepG2 cells

Note to self: IC50 at 14 days recorded for CC(C)OC(=O)[C@H](C)NP(=O)(OC[C@H]1O[C@@H](n2ccc(=O)[nH]c2=O)[C@](F)(Br)[C@H]1O)Oc1ccccc1 (mixture of isomers) was > 50 µM

Note to self: IC50 at 14 days recorded for CC(C)OC(=O)[C@H](C)N[P@@](=O)(OC[C@H]1O[C@@H](n2ccc(=O)[nH]c2=O)C(F)(Br)C1O)Oc1ccccc1 (single isomer, unassigned) was > 50 µM

Note to self: IC50 at 14 days recorded for Nc1ccn([C@H]2CC[C@@H](CO)O2)c(=O)n1 was < 10 µM

Each recorded value in this set is attributed to ChEMBL document CHEMBL4411318.
